# System: Human immunodeficiency virus 1
# assay.comment: Antiviral activity against HIV1 3B harboring reverse transcriptase Y181C mutant infected in human MT2 cells assessed as protection against viral infection by MTT method
# Format: functional, organism-based
# test.conditions: Human immunodeficiency virus 1, 3B, MT2; read-out: EC50
experimental.readout: pEC50
Remember the convention: pEC50 equals -log10 of concentration in molar.

INSERT INTO assay_data (molecular_string, test_value) VALUES
  ('Cc1cc(/C=C/C#N)cc(Oc2cc(Nc3ncnc(C4CC4)n3)ccc2C)c1', 7.82),
  ('Cc1cc(/C=C/C#N)cc(Oc2cc(Nc3ncnc(C4CC4)n3)ccc2Cl)c1', 8.31),
  ('N#Cc1cc2c(Oc3ccccc3OCCn3ccc(=O)[nH]c3=O)cccn2c1', 6.51);

## Input Query (molecule): N#Cc1cc2c(Oc3ccccc3OCCn3ccc(=O)[nH]c3=O)cc(Cl)cc2o1 ; field requested: pEC50
## Output 5.72

## Input CSc1ccnc(Nc2ccc(C#N)c(Oc3cccc(/C=C/C#N)c3)c2)n1 , same question.
## Output 6.60

###

# assay.comment: Cytotoxicity against human MT2 cells assessed as growth inhibition by MTT method
# Assay type: cell-based
# maps each entry to its CC50
State the answer as a number, implicitly in µM.

INSERT INTO assay_data (molecular_string, test_value) VALUES
  ('CC(C)=CCOc1cc(Nc2nccc3cc[nH]c23)ccc1Cl', 9.2),
  ('CC(C)=CCOc1cc(Nc2nccc3cccn23)ccc1Cl', 17),
  ('CC(C)=CCOc1cc(Nc2ncnc3occc23)ccc1Cl', 17),
  ('CSc1ccnc(Nc2ccc(C#N)c(Oc3cccc(/C=C/C#N)c3)c2)n1', 1.2);

## Input Give the measured CC50 of CC(C)=CCOc1cc(Nc2nccn3cccc23)ccc1Cl .
## Output 20

###

# assay.comment: Cytotoxicity against human MT2 cells assessed as growth inhibition by MTT method
# Type: cell-based
Each entry below carries its reported CC50.

Below, 2 compounds whose answers are already recorded.
INSERT INTO measurements (compound, experimental_readout, test_value) VALUES
  ('N#Cc1cc2c(Oc3ccccc3OCCn3ccc(=O)[nH]c3=O)cccn2c1', 'CC50', '> 100 µM'),
  ('N#Cc1cc2c(Oc3ccccc3OCCn3ccc(=O)[nH]c3=O)cc(Cl)cc2o1', 'CC50', '> 100 µM');

// next item, CC50 requested
## Input Can you share its CC50? I mean this compound: Cc1ccnc2c1NC(=O)c1cccnc1N2C1CC1 [NEVIRAPINE]
## Output > 100 µM

Reference source for all entries: ChEMBL document CHEMBL4477247
